These data points were gathered from PubChem BioAssay.

# assayComment: thallium flux activation in parental CHO cells, counter-screen for KCNQ1 potentiator project (AID 493006);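 for activation: fluorescence ratio of max minus min over baseline after K+ and Tl+ depolarization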
# conditionsUsed: parental CHO-K1 cells, FluxOR thallium flux, at 10 µM
Activity calls are given as the source filed them.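 Rule for the calls: active = duplicate-averaged activation above buffer control mean plus 5 SD of those controls; inactive = the rest.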
Hi there, use one of these labels in your reply, thanks! label 1 = active, label 0 = inactive

Example entries and their recorded answers appear below.
CCC(Oc1ccc(Cl)cc1)C(=O)N1CC(=O)Nc2ccccc21 (stereo not given) = label 0
COC(=O)C1=C(C(=O)OC)[C@@H]2N(C)c3ccccc3[C@@]23C[C@@H](C(=O)OC)N(C(=O)c2ccc(Br)cc2)C3=N1 = label 1
CCCCNC(=O)CNC(=O)c1nn(-c2ccc(OC)cc2OC)c(=O)c2ccccc12 = label 0
COc1ccc(-c2oc3ccccc3c(=O)c2OC(C)=O)cc1 = label 1

Exercise: Name the outcome recorded for CCCCCCCCCCCCC/C=C/[C@@H](O)[C@@H](N)CO in the assay.
Solution: label 1

Exercise: Name the outcome recorded for COc1ccc(N2CCN(CC(=O)Nc3nc(C)cs3)CC2)cc1 in the assay.
Solution: label 0

Exercise: Name the outcome recorded for NC(=O)c1ccsc1NC(=O)COC(=O)Cc1ccsc1 in the assay.
Solution: label 0

Exercise: Name the outcome recorded for COC(=O)c1sc(-c2ccccc2)cc1NC(=O)C1CC1 in the assay.
Solution: label 0

Exercise: Name the outcome recorded for CCOC(=O)/C(C)=N/NC(=O)c1ccc([N+](=O)[O-])cc1 in the assay.
Solution: label 1

Exercise: Name the outcome recorded for COc1ccccc1CNC(=O)COC(=O)c1nccnc1N in the assay.
Solution: label 0

----------
# studySystem: Short transient receptor potential channel 4 (Mus musculus) (UniProt Q9QUQ5)
# assayComment: calcium flux activators in TRPC4/5HT1a cells, counter-screen for TRPC4 activator project, cell-based, second counter screen, HEK293 TRPC4/5HT1a, Fluo-4 (AID 434977)
# conditionsUsed: Fluo-4 calcium flux, at 10 µM
Activity calls are given as the source filed them.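 How the source made its calls: active means calcium signal rise above buffer-control mean plus 5 SD in both duplicates, and also a hit in the primary screen; inactive means the rest.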
Hi there, use one of these labels in your reply, thanks! active, inactive

Example entries and their recorded answers appear below.
CCN(CCCNS(=O)(=O)c1cc(-c2cc(C)no2)ccc1C)Cc1ccccc1 = active
OCC1(CC2CCCCO2)CCN(Cc2nc3ccccc3[nH]2)CC1 (stereo unspecified) = inactive
CCN1CCN(c2ccc(S(=O)(=O)N3CCCCC3)cc2NC(=O)COc2ccccc2)CC1 = active
Cc1cccc(C(=O)NC(=S)NNC(=O)c2cccs2)c1 = active
CCN(CC)CCSc1nc2ccc(OC)cc2[nH]1 = active

Next:
Exercise: Name the outcome recorded for C=CCn1c(CCNC(=O)C(C)(C)C)nc2ccccc21 in the assay.
Solution: active

----------
# studySystem: Potassium voltage-gated channel subfamily KQT member 2 (Rattus norvegicus)
# assayComment: rat KCNQ2 channel potentiation, selectivity assay for KCNQ1 potentiator project, KCNQ2-CHO-K1 cells (AID 493009);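 note: assay conditions were tuned for KCNQ1 rather than KCNQ2 modulators; signal is max minus min fluorescence divided by baseline after thallium stimulus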
# conditionsUsed: FluxOR thallium flux fluorescence, at 10 µM, scaled: buffer 0, activator control 100
The source made the active and inactive calls.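 How the source made its calls: active means mean duplicate potentiation above the buffer control mean plus 5 SD of buffer wells; inactive means the rest.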
Hi there, use one of these labels in your reply, thanks! label 1 for active, label 0 for inactive

Example entries and their recorded answers appear below.
CC(C)(C)C(=O)NC(=S)NNC(=O)c1ccc(-c2ccccc2)cc1 = label 1
Cc1ccc(C(=O)Nc2nnn(C)n2)cc1 = label 0
O=C(NC(=S)Nc1ccc(N2CCCCC2)cc1)c1cccs1 = label 1
CCOc1ccc(NC(=O)Cn2sc3nc(C)cc(C)c3c2=O)cc1 = label 0
COc1cccc(-c2nc(=S)c3c(o2)CCCC3)c1 = label 0

Exercise: Name the outcome recorded for CCc1nnc(NC(=O)CCC(=O)N2CCN(C3CCCCC3)CC2)s1 in the assay.
Solution: label 0

Exercise: Name the outcome recorded for Cc1ccc(-c2nc3ccccc3c(=O)n2O)cc1 in the assay.
Solution: label 1

Exercise: Name the outcome recorded for CCn1c(SCC(=O)NC(=O)NCc2ccco2)nc2sc(C)c(C)c2c1=O in the assay.
Solution: label 1

Exercise: Name the outcome recorded for COc1ccc(NC(=O)[C@@H]2CC=C[C@@H]3CCN(C4CCCCC4)C(=O)[C@@H]32)cc1 in the assay.
Solution: label 0

Exercise: Name the outcome recorded for O=C(NC(=S)Nc1nc2ccc(F)cc2s1)c1ccco1 in the assay.
Solution: label 1

Exercise: Name the outcome recorded for CSc1ccccc1NC(=O)c1ccc2c(c1)CCN2S(C)(=O)=O in the assay.
Solution: label 0

Exercise: Name the outcome recorded for Cc1cc(NC(=O)CSc2nc(C3CC3)nc3sc(C)c(C)c23)no1 in the assay.
Solution: label 1

Exercise: Name the outcome recorded for Cc1ccc(C(C(=O)NC2CCCCC2)N(Cc2cccnc2)C(=O)C2COc3ccccc3O2)o1 (stereo unspecified) in the assay.
Solution: label 0

Exercise: Name the outcome recorded for CC1CCCC(NC(=S)NC(=O)c2cncc(Br)c2)C1C (stereo unspecified) in the assay.
Solution: label 0

Exercise: Name the outcome recorded for OC(CNC1CCCCC1)COCCOc1ccc(Br)cc1 (stereo unspecified) in the assay.
Solution: label 0

Exercise: Name the outcome recorded for O=c1c2cccnc2n(-c2ccccc2)n1Cc1ccc(Cl)cc1 in the assay.
Solution: label 0

Exercise: Name the outcome recorded for CC(=O)/C=C/c1ccc2ccccc2n1 in the assay.
Solution: label 0

Exercise: Name the outcome recorded for O=C(Nc1nc(=O)c2ccccc2s1)c1ccc(Cl)cc1 in the assay.
Solution: label 1

Exercise: Name the outcome recorded for O=C(NC(=S)N(CCc1ccccc1)CCc1ccccc1)c1ccco1 in the assay.
Solution: label 1

Exercise: Name the outcome recorded for CCOC(=O)c1[nH]c(C=O)c(C(=O)OCC)c1C in the assay.
Solution: label 0

Exercise: Name the outcome recorded for CCOc1ccc2nc(N3C(=O)/C(=C/c4ccc(Cl)cc4)NC3=S)sc2c1 in the assay.
Solution: label 1

Exercise: Name the outcome recorded for C[C@@H](NC(=O)OC(C)(C)C)c1nnc(S(=O)(=O)Cc2ccccc2)o1 in the assay.
Solution: label 1

----------
# assayComment: thallium flux activation in parental CHO cells, counter-screen for KCNQ1 potentiator project (AID 493006);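 for activation: fluorescence ratio of max minus min over baseline after K+ and Tl+ depolarization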
# conditionsUsed: parental CHO-K1 cells, FluxOR thallium flux, at 10 µM
Calls of active or inactive are those of the source.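 The calls were made as follows: active = duplicate-averaged activation above buffer control mean plus 5 SD of those controls; inactive = the rest.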
Hi there, use one of these labels in your reply, thanks! T for active, F for inactive

CN(Cc1ccccc1)C(=S)NC(=O)c1ccccc1 = F
COc1ccc(CN2C(=O)C(C)S/C2=N/N=C/c2ccco2)cc1 (stereo unspecified) = F
COC(=O)N/N=C/c1cc(C)n(-c2ccc(Br)cc2)c1C = F
Cc1snnc1C(=O)NC(=S)Nc1ccccc1 = T
Cc1ccc(CNc2nc3c([nH]2)c(=O)n(C)c(=O)n3C)cc1 = F

Exercise: Name the outcome recorded for O=C(Nc1nnc(-c2ccc(Cl)cc2)o1)c1ccccc1Br in the assay.
Solution: T

----------
# assayComment: calcium flux activation in mu-opioid HEK293 cells, confirmation, counter-screen for TRPC4 activator project, cell-based, HEK293 mu-opioid receptor line (AID 449723);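 note: counter screen cells carry the mu-opioid receptor alone and lack TRPC4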
# conditionsUsed: Fluo-4 calcium fluorescence, at 10 µM
The source made the active and inactive calls.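 The calls were made as follows: active = hit in primary screen, with calcium signal over 5 SD above buffer well mean in both duplicates; inactive = the rest.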
Hi there, use one of these labels in your reply, thanks! active, inactive

Example entries and their recorded answers appear below.
CCN(CCCNS(=O)(=O)c1cc(-c2cc(C)no2)ccc1C)Cc1ccccc1 = inactive
CCn1cc(CN2CCC(n3nccc3NC(=O)CCOc3ccccc3)CC2)cn1 = inactive
CCn1c(N)[n+](CC(=O)Nc2ccc(SC(F)F)cc2)c2ccccc21 = inactive
CCOC(=O)C1(CCc2ccccc2)CCN(Cc2c(O)cccc2OC)CC1 = inactive
OCCNCCSc1ccc(Cl)cc1 = inactive

Exercise: Name the outcome recorded for Cc1ccc(C(=O)NNC(=S)NC(=O)c2ccccc2)cc1 in the assay.
Solution: active

----------
# assayComment: thallium flux activation in parental CHO cells, counter-screen for KCNQ1 potentiator project (AID 493006);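 for activation: fluorescence ratio of max minus min over baseline after K+ and Tl+ depolarization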
# conditionsUsed: parental CHO-K1 cells, FluxOR thallium flux, at 10 µM
Activity calls are given as the source filed them.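 The calls were made as follows: active = duplicate-averaged activation above buffer control mean plus 5 SD of those controls; inactive = the rest.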
Hi there, use one of these labels in your reply, thanks! 1 (active), 0 (inactive)

CC(=O)CSc1ncnc2sc3c(c12)CCC(C)C3 (stereo not drawn) = 1
O=C(N/N=C/c1ccc([N+](=O)[O-])o1)c1sc2ccccc2c1Cl = 0
C(=N\NC(=Nc1ccccc1)c1ccccn1)/c1ccccn1 = 0
CC(Sc1n[nH]c(N)n1)C(=O)NC1CCCCC1C (stereo not drawn) = 1
CCCCN(CCCC)c1ccc(C(=O)c2ccccc2C(=O)O)c(O)c1 = 1

Exercise: Name the outcome recorded for CCOC(=O)c1c(-c2ccccc2)oc2ccc(O)c(CN3CCN(C)CC3)c12 in the assay.
Solution: 0

Exercise: Name the outcome recorded for CCC1CCC2(CC1)NC(CO)(CO)CO2 (stereo not drawn) in the assay.
Solution: 0

Exercise: Name the outcome recorded for CSc1nc(C)cc(OCC(=O)N/N=C/c2ccccc2O)n1 in the assay.
Solution: 0

Exercise: Name the outcome recorded for Cc1ccc(-n2c(=S)[nH]c3sc4c(c3c2=O)CCC4)cc1 in the assay.
Solution: 1

Exercise: Name the outcome recorded for O=C(NC(=S)N1CCCCCC1)c1ccc(Cl)cc1Cl in the assay.
Solution: 1

Exercise: Name the outcome recorded for COC(=O)c1ccccc1NC(=S)NC(NC(=O)c1ccco1)C(Cl)(Cl)Cl (stereo not drawn) in the assay.
Solution: 1

Exercise: Name the outcome recorded for C=CCn1c(O)c(N=NC(=S)Nc2ccccc2F)c2cc(S(=O)(=O)N3CCOCC3)ccc21 in the assay.
Solution: 0
